PROTOCOL_NOTES: chemical genetic growth profiling, strain panel (AID 1159580);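 note: tested at 20 µM; growth read once vehicle control cultures reached saturation at 30 °C; 1 = growth at the plate median or of vehicle wells; lower values mean less growth of the strain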
STATED_CONDITIONS: S. cerevisiae deletion strains, growth OD, locus YMR125W, strain sto1, hits give low values
Counter-ions that a name gives are not always drawn. The whole screen tested about 5,500 compounds, of which about 2,000 (36%) were called active. Inconclusive results (about 18%) are left out. Some of the results follow. Where a SMILES comes first, the peptide text is derived from it. The star is where a group is joined. Tfa = O=C(C(F)(F)F)*
READOUT_TYPE: normalized growth
Lab note: write the figure by itself, no unit.

Look over these answered cases.
[[record]]
molecule = "CCCCCCCCCCCCCCCC(=O)OC1C(SC)OC(C(NC(=O)C2CC(CCC)CN2C)C(C)Cl)C(O)C1O (centres undefined)"
readout_type = "normalized growth"
value_measured = 0.971

[[record]]
molecule = "CC(=O)OCC[C@H](C)CCC=C(C)C"
readout_type = "normalized growth"
value_measured = 0.985

[[record]]
molecule = "C=C1C(=O)O[C@@H]2C[C@@]3(C)CCC[C@H](C)C3=C[C@H]12"
readout_type = "normalized growth"
value_measured = 0.669

[[record]]
molecule = "C=CCSCC1Nc2cc(Cl)c(S(N)(=O)=O)cc2S(=O)(=O)N1 (centres undefined)"
readout_type = "normalized growth"
value_measured = 0.998

[[record]]
molecule = "CC(=O)OCC(OC(C)=O)C(OC(C)=O)C(OC(C)=O)C(OC(C)=O)C(COC(C)=O)OC(C)=O (centres undefined)"
readout_type = "normalized growth"
value_measured = 0.975


Query block: Give reported normalized growth value for `CC(=O)Oc1c(C)cccc1C(=O)O`
Result block: 1

Query block: Give reported normalized growth value for `CC(C)NC[C@H](O)COc1cccc2ccccc12`
Result block: 0.966

Query block: Give reported normalized growth value for CO/N=C(\C(=O)NC1C(=O)N2C(C(=O)O)=C(COC(N)=O)CSC12)c1ccco1 (centres undefined)
Result block: 0.979

Query block: Give reported normalized growth value for C=C1CCC2C(CC2(C)C)C(=C)CC/C1=N\O (centres undefined)
Result block: 1.03

Query block: Give reported normalized growth value for CC1C[C@H]2CC(=O)[C@H]3CCCN4CCC[C@H]2[C@]34C1 (some centres undefined)
Result block: 1.01

Query block: Give reported normalized growth value for `N[C@@H](CC(=O)N1CCn2c(nnc2C(F)(F)F)C1)Cc1cc(F)c(F)cc1F`
Result block: 0.974

Query block: Give reported normalized growth value for `CC1(C)O[C@H]2[C@H](O)C[C@](O)(C(N)=O)C[C@H]2O1`
Result block: 1

Query block: Give reported normalized growth value for `CCC(C)(C)C(=O)O[C@H]1C[C@@H](C)C=C2C=C[C@H](C)[C@H](CC[C@@H]3C[C@@H](O)CC(=O)O3)[C@H]21`
Result block: 0.97

Query block: Give reported normalized growth value for `Cc1ccc(Cl)c(Nc2ccccc2C(=O)O)c1Cl`
Result block: 0.854

Query block: Give reported normalized growth value for `COc1c2ccoc2c(OC)c2oc(=O)ccc12`
Result block: 0.994

Query block: Give reported normalized growth value for `COC(=O)C[C@H]1C(C)(C)C(=O)[C@@H]2CC3=C(CC[C@]4(C)C3=CC(=O)O[C@H]4c3ccoc3)[C@@]1(C)C2=O`
Result block: 0.975

Query block: Give reported normalized growth value for `COc1cc([C@@H]2c3cc4c(c(O)c3C[C@H]3COC(=O)[C@@H]32)OCO4)cc(OC)c1OC`
Result block: 0.986

Query block: Give reported normalized growth value for `CC(C)(C)CC(C)(C)c1ccc(O)c(Cc2ccc(Cl)cc2Cl)c1`
Result block: 1.02

Query block: Give reported normalized growth value for CO/N=C(\C(=O)NC1C(=O)N2C(C(=O)OC(C)OC(C)=O)=C(COC(N)=O)CSC12)c1ccco1 (centres undefined)
Result block: 0.985

Query block: Give reported normalized growth value for CC(C)C(NC(=O)C(Cc1ccc(O)cc1)NC(=O)C(NC(=O)C(F)(F)F)C(C)C)C(=O)O (stereo not drawn) (Tfa-Val-Tyr-Val-OH; configuration not given here)
Result block: 0.978

Query block: Give reported normalized growth value for `CC(C)C(=O)Nc1ccc([N+](=O)[O-])c(C(F)(F)F)c1`
Result block: 1.03

Query block: Give reported normalized growth value for `CCNC(=O)CC[C@H](N)C(=O)O`
Result block: 0.996

* * *

PROTOCOL_NOTES: chemical genetic growth profiling, strain panel (AID 1159580);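 note: tested at 20 µM; growth read once vehicle control cultures reached saturation at 30 °C; 1 = growth at the plate median or of vehicle wells; lower values mean less growth of the strain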
STATED_CONDITIONS: S. cerevisiae deletion strains, growth OD, locus YJL134W, strain LCB3, hits give low values
About 2,000 (36%) of roughly 5,500 compounds were called active. Roughly 18% stayed inconclusive and do not appear here. The list shows a part of the results.
READOUT_TYPE: normalized growth

Look over these answered cases.
[[record]]
compound = "OCc1ccccc1O"
value_measured = "1.02 (inactive)"

[[record]]
compound = "O=C1[C@H](CCC(O)c2ccc(F)cc2)[C@@H](c2ccc(O)cc2)N1c1ccc(F)cc1 (some centres not stated)"
value_measured = "0.989 (inactive)"

[[record]]
compound = "Nc1nc2ncc(=O)[nH]c2c(=O)[nH]1"
value_measured = "0.997 (inactive)"

[[record]]
compound = "CCC(C)(C)C(=O)O[C@H]1C[C@@H](C)C=C2C=C[C@H](C)[C@H](CC[C@@H]3C[C@@H](O)CC(=O)O3)[C@H]21"
value_measured = "1.01 (inactive)"

[[record]]
compound = "C=C1CCC(C2CC(=O)OC2=O)C(=O)CCC2C1CC2(C)C (configuration not stated)"
value_measured = "0.997 (inactive)"

[[record]]
compound = "CCCCN1CCCCC1C(=O)Nc1c(C)cccc1C (configuration not stated)"
value_measured = "1.01 (inactive)"

[[record]]
compound = "COc1cc2occ(-c3ccccc3)c(=O)c2c(OC)c1C"
value_measured = "0.965 (inactive)"

[[record]]
compound = "CCCNC1CCc2nc(N)sc2C1 (configuration not stated)"
value_measured = "1.01 (inactive)"


Query block: Give reported normalized growth value for `CO/N=C(\C(=O)N[C@@H]1C(=O)N2C(C(=O)O)=C(CSc3nc(=O)c(O)nn3C)CS[C@H]12)c1csc(N)n1`
Result block: 0.993 (inactive)

Query block: Give reported normalized growth value for `COc1ccc(CCN2CCC(Nc3nc4ccccc4n3Cc3ccc(F)cc3)CC2)cc1`
Result block: 0.998 (inactive)

Query block: Give reported normalized growth value for `Cc1ccc(Cl)c(Nc2ccccc2C(=O)O)c1Cl`
Result block: 0.906 (active)

Query block: Give reported normalized growth value for `CCCCOC(=O)c1ccc(N)cc1`
Result block: 0.985 (inactive)

Query block: Give reported normalized growth value for `CCCCOC(=O)c1ccccc1C(=O)OCc1ccccc1`
Result block: 0.968 (inactive)

Query block: Give reported normalized growth value for `Cc1cccc(Nc2ccccc2C(=O)O)c1C`
Result block: 0.894 (active)

Query block: Give reported normalized growth value for CCC(C)c1cnc(CC(C)C)c(=O)n1O (configuration not stated)
Result block: 0.993 (inactive)

Query block: Give reported normalized growth value for `COc1cc(-c2coc3cc(OC)c(OC)c(OC)c3c2=O)cc(OC)c1OC`
Result block: 1 (inactive)

Query block: Give reported normalized growth value for C=CCSCC1Nc2cc(Cl)c(S(N)(=O)=O)cc2S(=O)(=O)N1 (configuration not stated)
Result block: 1.01 (inactive)

* * *

PROTOCOL_NOTES: chemical genetic growth profiling, strain panel (AID 1159580);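 note: tested at 20 µM; growth read once vehicle control cultures reached saturation at 30 °C; 1 = growth at the plate median or of vehicle wells; lower values mean less growth of the strain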
STATED_CONDITIONS: S. cerevisiae deletion strains, growth OD, locus YER111C, strain swi4, hits give low values
The whole screen tested about 5,500 compounds, of which about 2,000 (36%) were called active. Inconclusive results (about 18%) are left out. The list shows a part of the results.
# 1 = normalized growth below 1 (exclusive); 0 = normalized growth at/above 1

For orientation, consider the following solved cases.
[[record]]
compound = "C[C@H]1COC2=C1C(=O)C(=O)c1c2ccc2c1CCCC2(C)C"
group = 1

[[record]]
compound = "C=C1C(=O)O[C@@H]2C[C@@]3(C)CCC[C@H](C)C3=C[C@H]12"
group = 1


Query block: Determine if NC(CO)C(=O)NNCc1ccc(O)c(O)c1O (stereo not given) shows normalized growth strictly lower than 1.
Result block: 1

Query block: Determine if `Cc1ccc(Cl)c(Nc2ccccc2C(=O)O)c1Cl` shows normalized growth strictly lower than 1.
Result block: 1

Query block: Determine if `COc1ccc(CCN2CCC(Nc3nc4ccccc4n3Cc3ccc(F)cc3)CC2)cc1` shows normalized growth strictly lower than 1.
Result block: 1

Query block: Determine if `CC(C)C(=O)Nc1ccc([N+](=O)[O-])c(C(F)(F)F)c1` shows normalized growth strictly lower than 1.
Result block: 0

* * *

PROTOCOL_NOTES: chemical genetic growth profiling, strain panel (AID 1159580);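 note: tested at 20 µM; growth read once vehicle control cultures reached saturation at 30 °C; 1 = growth at the plate median or of vehicle wells; lower values mean less growth of the strain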
STATED_CONDITIONS: S. cerevisiae deletion strains, growth OD, locus YGL078C, strain dbp3, hits give low values
In all, about 5,500 compounds went through this assay and about 2,000 (36%) were called active. Not shown: some 18% with an inconclusive outcome. The list shows a part of the results.
Below: a set of entries, each annotated with reported normalized growth.

Look over these answered cases.
[[record]]
molecule = "O=C1[C@H](CCC(O)c2ccc(F)cc2)[C@@H](c2ccc(O)cc2)N1c1ccc(F)cc1 (stereo partly drawn)"
value_measured = "0.976 (inactive)"

[[record]]
molecule = "O=c1cc[nH]c(=S)[nH]1"
value_measured = "1.01 (inactive)"

[[record]]
molecule = "CCNC(=O)CC[C@H](N)C(=O)O"
value_measured = "0.988 (inactive)"

[[record]]
molecule = "CCCC(=O)O[C@]1(C(=O)CO)CCC2[C@@H]3CCC4=CC(=O)CC[C@]4(C)C3[C@@H](O)C[C@@]21C (stereo partly drawn)"
value_measured = "0.978 (inactive)"

[[record]]
molecule = "C=C1C(=O)O[C@@H]2C[C@@]3(C)CCC[C@H](C)C3=C[C@H]12"
value_measured = "0.981 (inactive)"


Attention now turns to another entry.
Query block: Give reported normalized growth value for CC(=O)OCC(OC(C)=O)C(OC(C)=O)C(OC(C)=O)C(OC(C)=O)C(COC(C)=O)OC(C)=O (stereo not drawn)
Result block: 0.976 (inactive)
